IC50 values, listed per item
Tested on: MT2
test_description: Cytotoxicity against human MT2 cells
Type: cell-based

Reference set, count: 4
O=C(O)c1cc(NC(=O)c2cc3c(O)c(c2)Cc2cc(C(=O)Nc4cc(C(=O)O)cc(C(=O)O)c4)cc(c2O)Cc2cc(C(=O)Nc4cc(C(=O)O)cc(C(=O)O)c4)cc(c2O)Cc2cc(C(=O)Nc4cc(C(=O)O)cc(C(=O)O)c4)cc(c2O)C3)cc(C(=O)O)c1 : > 50 µM
CCCCOc1c2cc(C(=O)O)cc1Cc1cc(C(=O)O)cc(c1OCCCC)Cc1cc(C(=O)O)cc(c1OCCCC)Cc1cc(C(=O)O)cc(c1OCCCC)C2 : 13 µM
CCCCOc1c2cc(C(=O)Nc3cc(C(=O)O)cc(C(=O)O)c3)cc1Cc1cc(C(=O)Nc3cc(C(=O)O)cc(C(=O)O)c3)cc(c1OCCCC)Cc1cc(C(=O)Nc3cc(C(=O)O)cc(C(=O)O)c3)cc(c1OCCCC)Cc1cc(C(=O)Nc3cc(C(=O)O)cc(C(=O)O)c3)cc(c1OCCCC)C2 : > 50 µM
CCCCOc1c2cc(C(=O)N[C@@H](CCC(=O)O)C(=O)O)cc1Cc1cc(C(=O)N[C@@H](CCC(=O)O)C(=O)O)cc(c1OCCCC)Cc1cc(C(=O)N[C@H](CCC(=O)O)C(=O)O)cc(c1OCCCC)Cc1cc(C(=O)N[C@@H](CCC(=O)O)C(=O)O)cc(c1OCCCC)C2 : > 50 µM

Req: Bench note: what IC50 did CCCCOc1c2cc(C(=O)Nc3cc(C(=O)O)cc(C(=O)OCc4ccccc4)c3)cc1Cc1cc(C(=O)Nc3cc(C(=O)O)cc(C(=O)OCc4ccccc4)c3)cc(c1OCCCC)Cc1cc(C(=O)Nc3cc(C(=O)O)cc(C(=O)OCc4ccccc4)c3)cc(c1OCCCC)Cc1cc(C(=O)Nc3cc(C(=O)O)cc(C(=O)OCc4ccccc4)c3)cc(c1OCCCC)C2 show?
Resp: > 50 µM
